System Tested: PRMT5-MEP50 enzyme (Homo sapiens, UniProt O14744)
Construct: One virus expresses full length human PRMT5 with Flag-tag at N-terminus; Flag (N); purchased Charles River (Argenta); host or cells: insect cells (Sf9), baculovirus co-infection
Sequence (O14744 whole entry): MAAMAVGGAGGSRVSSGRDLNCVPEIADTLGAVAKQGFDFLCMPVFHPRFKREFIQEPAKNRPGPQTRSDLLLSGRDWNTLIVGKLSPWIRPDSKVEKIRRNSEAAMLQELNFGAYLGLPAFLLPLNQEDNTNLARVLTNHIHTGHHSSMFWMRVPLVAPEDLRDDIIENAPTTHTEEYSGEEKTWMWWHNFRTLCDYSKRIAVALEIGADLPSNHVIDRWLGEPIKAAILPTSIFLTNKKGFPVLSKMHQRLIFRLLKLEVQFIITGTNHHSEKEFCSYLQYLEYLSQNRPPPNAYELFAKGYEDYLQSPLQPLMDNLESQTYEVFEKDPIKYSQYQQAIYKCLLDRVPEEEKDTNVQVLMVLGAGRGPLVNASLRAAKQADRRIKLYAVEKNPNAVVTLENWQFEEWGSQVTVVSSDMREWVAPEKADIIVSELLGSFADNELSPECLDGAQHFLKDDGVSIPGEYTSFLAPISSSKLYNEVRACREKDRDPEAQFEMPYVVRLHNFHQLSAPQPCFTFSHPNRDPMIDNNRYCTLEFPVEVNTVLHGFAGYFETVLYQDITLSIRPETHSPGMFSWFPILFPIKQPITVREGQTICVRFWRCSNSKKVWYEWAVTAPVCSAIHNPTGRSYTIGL
Sequence (Q9BQA1 whole entry partner): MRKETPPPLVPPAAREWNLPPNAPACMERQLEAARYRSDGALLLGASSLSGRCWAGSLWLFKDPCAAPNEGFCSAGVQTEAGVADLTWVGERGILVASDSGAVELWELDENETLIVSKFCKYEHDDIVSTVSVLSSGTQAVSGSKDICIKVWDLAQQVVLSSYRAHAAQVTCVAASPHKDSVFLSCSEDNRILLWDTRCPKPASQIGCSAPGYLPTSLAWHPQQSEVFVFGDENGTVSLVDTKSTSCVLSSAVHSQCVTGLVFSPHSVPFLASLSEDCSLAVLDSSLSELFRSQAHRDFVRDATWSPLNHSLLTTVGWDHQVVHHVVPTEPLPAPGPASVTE
Experiment Summary: In vitro assay 1b: high throughput mass spectrometer assay of SAH formation, 1.25 nM enzyme, 120 min
Format: biochemical
Conditions: averaged values; PRMT5-MEP50, 1.25 nM enzyme, 120 min; read-out: pIC50 Assay 1b (converted)
Readout Kind: IC50 (nM)

Nc1ncnc2c1ccn2[C@@H]1C[C@H](OCc2ccc3cnccc3c2)[C@@H](O)[C@H]1O = 7940

A = COc1ncnc2c1ccn2[C@@H]1O[C@H](CCc2ccc3cc(F)c(N)nc3c2)[C@@H](O)[C@H]1O
B = Nc1ncnc2c1ccn2[C@@H]1O[C@H](COc2ccc3ccnnc3c2)[C@@H](O)[C@H]1O
C = Nc1ncnc2c1ccn2[C@@H]1O[C@H](/C=C/c2ccc3cc(Cl)cnc3c2)[C@@H](O)[C@H]1O [Compound 57a]
D = Nc1ncnc2c1ccn2[C@@H]1O[C@H](COc2ccc3cc(F)cnc3c2)[C@@H](O)[C@H]1O
E = CN(C[C@H]1O[C@@H](n2ccc3c(Cl)ncnc32)[C@H](O)[C@@H]1O)c1ccc2cc(Br)cnc2c1
Query string: Which order do these items take when sorted by rising IC50? List them. # format: label list in the order the request specifies
Result string: C, D, A, E, B
(C: 50.1 nM, D: 126 nM, A: 631 nM, E: 1000 nM, B: 3160 nM)
